- Protocol description: Plasma half-life in rat at a dose of 5 mg/kg
- Format: ADME, organism-based
- Design: dose 5 mg/kg
Reported metric: half-life (min)

[
  {
    "Item smiles": "Cc1cc(C(C)(C)C)cc(C)c1CC1=NCCN1C",
    "half-life (min)": 57
  }
]

(a) Cc1cc(C(C)(C)C)cc(C)c1CC1=NCCCN1
(b) Cc1cc(C(C)(C)C)cc(C)c1CC1=NCCN1Cc1ccccc1
Req: When a and b are compared, which has the higher number for half-life? Return value: the label identifying the chosen record.
Resp: b
(b: 98.5 min, a: 61.8 min)
